Where do these numbers come from? They come from the supplement of paper PMC9112550.

test system: Escherichia coli TOP10; assay: shrunken log2 fold change of peptide-encoding DNA abundance (4.5 h post-induction vs induction); higher = less antimicrobial activity (less host growth inhibition); conditions: time post-induction: 4.5 h; library: site-saturation at positions 5, 18, 19, 20;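 also: peptides expressed intracellularly from a pBAD plasmid library in pooled LB shake-flask culture, induced with 0.3% L-arabinose, DNA abundance read by NGS, three biological replicates, DESeq2 with apeglm shrinkage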
measurement-type: shrunken log2 fold change

Given item RRIRRRPPRLPRPRPRPTAWPRP , the value recorded as its shrunken log2 fold change is 0.288

Given item RRIRNRPPRLPRPRPRPAHLPRP , the value recorded as its shrunken log2 fold change is 0.256

Given item RRIRGRPPRLPRPRPRPRWVPRP , the value recorded as its shrunken log2 fold change is 0.289

Given item RRIRARPPRLPRPRPRPGKLPRP , the value recorded as its shrunken log2 fold change is 0.149

Given item RRIRWRPPRLPRPRPRPTFRPRP , the value recorded as its shrunken log2 fold change is -0.0799

Given item RRIRRRPPRLPRPRPRPDIMPRP , the value recorded as its shrunken log2 fold change is -0.146

Given item RRIRARPPRLPRPRPRPDSPPRP , the value recorded as its shrunken log2 fold change is 0.342

Given item RRIRDRPPRLPRPRPRPMPMPRP , the value recorded as its shrunken log2 fold change is 0.0753

Given item RRIRERPPRLPRPRPRPSNDPRP , the value recorded as its shrunken log2 fold change is -0.247

Given item RRIRTRPPRLPRPRPRPWYSPRP , the value recorded as its shrunken log2 fold change is -0.818

Given item RRIRYRPPRLPRPRPRPTFNPRP , the value recorded as its shrunken log2 fold change is -0.73

Given item RRIRHRPPRLPRPRPRPFVTPRP , the value recorded as its shrunken log2 fold change is -0.188

Given item RRIRYRPPRLPRPRPRPTCTPRP , the value recorded as its shrunken log2 fold change is -0.229

Given item RRIRVRPPRLPRPRPRPWSRPRP , the value recorded as its shrunken log2 fold change is -0.273

Given item RRIRQRPPRLPRPRPRPHRYPRP , the value recorded as its shrunken log2 fold change is -0.812

Given item RRIRSRPPRLPRPRPRPPVQPRP , the value recorded as its shrunken log2 fold change is 0.319

Given item RRIRVRPPRLPRPRPRPFYGPRP , the value recorded as its shrunken log2 fold change is -0.127

Given item RRIRERPPRLPRPRPRPPPWPRP , the value recorded as its shrunken log2 fold change is 0.318

Given item RRIRDRPPRLPRPRPRPIEAPRP , the value recorded as its shrunken log2 fold change is 0.184

Given item RRIRERPPRLPRPRPRPYLDPRP , the value recorded as its shrunken log2 fold change is -0.149

Given item RRIRMRPPRLPRPRPRPIMPPRP , the value recorded as its shrunken log2 fold change is 0.0288

Given item RRIRDRPPRLPRPRPRPKFHPRP , the value recorded as its shrunken log2 fold change is -0.362

Given item RRIRVRPPRLPRPRPRPVYHPRP , the value recorded as its shrunken log2 fold change is -0.544

Given item RRIRARPPRLPRPRPRPQRRPRP , the value recorded as its shrunken log2 fold change is 0.366

Given item RRIRTRPPRLPRPRPRPPHYPRP , the value recorded as its shrunken log2 fold change is 0.0354

Given item RRIRNRPPRLPRPRPRPDLQPRP , the value recorded as its shrunken log2 fold change is -0.0156

Given item RRIRIRPPRLPRPRPRPKHMPRP , the value recorded as its shrunken log2 fold change is -0.451

Given item RRIRGRPPRLPRPRPRPFCKPRP , the value recorded as its shrunken log2 fold change is 0.0671

Given item RRIRQRPPRLPRPRPRPKEDPRP , the value recorded as its shrunken log2 fold change is -0.0372

Given item RRIRCRPPRLPRPRPRPLPFPRP , the value recorded as its shrunken log2 fold change is -0.71

Given item RRIRNRPPRLPRPRPRPTREPRP , the value recorded as its shrunken log2 fold change is 0.15

Given item RRIRWRPPRLPRPRPRPPETPRP , the value recorded as its shrunken log2 fold change is 0.166
